Test: in vivo
Details: rat, po, 150 mg/kg
Description: Three studies were performed to investigate the pharmacokinetics of oral administration of a scyllo-cyclohexanehexyl (Table 1): Plasma pharmacokinetics (PK) of a scyllo-cyclohexanehexyl in rats was assessed after single oral doses of 15, 50 and 150 mg/kg. After single oral doses in rats, maximum plasma concentration (Cmax) and exposure (AUC0-t) values increased proportionally with dose level of the scyllo-cyclohexanehexyl. Other parameters were unchanged with dose level. […]
property measured: AUC(0-t) (µg·h/mL)
Answers are plain numbers, in µg·h/mL.

Noted for OC1C(O)C(O)C(O)C(O)C1O (stereo not shown) : its AUC(0-t) reads 537

###

Assay: CSF and plasma levels at end of 14 day repeat dose study in dogs
Type: in vivo, dog
Settings: dog, plasma, oral, after 14 days dosing, Dose 300 mg/kg, read-out: Plasma level at 12 h
property measured: concentration at 12 h

Noted for OC1C(O)C(O)C(O)C(O)C1O (stereo not shown) [AZD-103, scyllo-inositol] : its concentration at 12 h reads 8200 ng/mL

###

Assay: Brain penetrance: plasma and CSF pharmacokinetics after single oral doses in dogs
Format: in vivo, dog
Conditions: dog, CSF, single oral dose 80 mg/kg
property measured: Cmax

Noted for OC1C(O)C(O)C(O)C(O)C1O (stereo not shown) : its Cmax reads 18700 ng/mL

###

Assay: in vivo
Details: rat, po, 150 mg/kg
property measured: Vd
Number plus unit, in that order.

Noted for OC1C(O)C(O)C(O)C(O)C1O (stereo not shown) : its Vd reads 2.24 L/kg

###

Experiment: in vivo
Details: dog, po, 150 mg/kg
property measured: Tmax (h)
Answers are plain numbers, in h.

Noted for OC1C(O)C(O)C(O)C(O)C1O (stereo not shown) [AZD-103, scyllo-inositol] : its Tmax reads 1.8

###

Experiment: Single oral and intravenous dose pharmacokinetics, dose range-finding study in beagle dogs
Assay type: in vivo, beagle dog
Details: beagle, dog, plasma; dogs, single intravenous dose 240 mg/kg
property measured: AUC(0-t) (µg·h/mL)
Give bare numbers, in µg·h/mL.

Noted for OC1C(O)C(O)C(O)C(O)C1O (stereo not shown) [AZD-103, scyllo-inositol] : its AUC(0-t) reads 244

###

Assay: clinical
Settings: male, human, in vivo, po, 2000 mg
Excerpt: Dose levels were escalated between cohorts, such that the first cohort received the lowest dose level, the middle cohorts received intermediate dose levels, and the final cohort received the highest proposed dose level. Dose escalation was dependent on a review of safety data from the previously dosed cohort. […] Throughout the day on Day 1, subjects were monitored for safety and PK samples were drawn. On Day 2, subjects were monitored for safety and PK samples were drawn.
property measured: half-life
Number plus unit, in that order.

Noted for OC1C(O)C(O)C(O)C(O)C1O (stereo not shown) : its half-life reads 23.9 h

###

Assay: clinical
Settings: male, human, in vivo, po, 1000 mg
property measured: Cmax
Number plus unit, in that order.

Noted for OC1C(O)C(O)C(O)C(O)C1O (stereo not shown) : its Cmax reads 17000 ng/mL

###

Assay: clinical
Conditions: male, human, in vivo, po, 5000 mg
Description: Dose levels were escalated between cohorts, such that the first cohort received the lowest dose level, the middle cohorts received intermediate dose levels, and the final cohort received the highest proposed dose level. Dose escalation was dependent on a review of safety data from the previously dosed cohort. […] Throughout the day on Day 1, subjects were monitored for safety and PK samples were drawn. On Day 2, subjects were monitored for safety and PK samples were drawn.
property measured: MRT

Noted for OC1C(O)C(O)C(O)C(O)C1O (stereo not shown) : its MRT reads 8.23 h

###

Assay: in vivo
Settings: rat, po, 15 mg/kg
property measured: AUC(0-t)

Noted for OC1C(O)C(O)C(O)C(O)C1O (stereo not shown) : its AUC(0-t) reads 161 µg·h/mL

###

Assay: Brain penetrance: plasma and CSF pharmacokinetics after single oral doses in dogs
Assay type: in vivo, dog
Details: dog, PLASMA LEVELS, single oral dose 240 mg/kg
property measured: AUC(0-t)

Noted for OC1C(O)C(O)C(O)C(O)C1O (stereo not shown) : its AUC(0-t) reads 514 µg·h/mL

###

Assay: Brain penetrance: plasma and CSF pharmacokinetics after single oral doses in dogs
Format: in vivo, dog
Conditions: dog, CSF, single oral dose 240 mg/kg
property measured: Tmax (h)
Give bare numbers, in h.

Noted for OC1C(O)C(O)C(O)C(O)C1O (stereo not shown) [AZD-103, scyllo-inositol] : its Tmax reads 3

Each recorded value in this set is attributed to patent US20100113613A1.
